Molecular target: T1, human PVRIG expressed on cells (human, UniProt Q6DKI7 41-326)
T1 sequence (looked up): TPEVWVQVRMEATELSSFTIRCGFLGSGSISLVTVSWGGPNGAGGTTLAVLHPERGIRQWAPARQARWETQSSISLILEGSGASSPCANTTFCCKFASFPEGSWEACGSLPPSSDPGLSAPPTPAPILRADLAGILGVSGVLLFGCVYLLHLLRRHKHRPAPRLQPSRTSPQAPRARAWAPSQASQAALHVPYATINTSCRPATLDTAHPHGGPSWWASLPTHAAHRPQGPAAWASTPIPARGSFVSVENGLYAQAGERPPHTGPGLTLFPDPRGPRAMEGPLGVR
Test: cell-based or functional assay
METRIC NAME: MLR IFNγ (pg/mL), 20 nM antibody
Reply numerically in pg/mL, unit not repeated.

In the examples that follow, each entry is paired with its recorded MLR IFNγ (pg/mL), 20 nM antibody.
[[record]]
binder = "anti-PVRIG antibody 38 (antibody, human IgG4 S228P, F234A L235A, V domains shown, no light chain) VH: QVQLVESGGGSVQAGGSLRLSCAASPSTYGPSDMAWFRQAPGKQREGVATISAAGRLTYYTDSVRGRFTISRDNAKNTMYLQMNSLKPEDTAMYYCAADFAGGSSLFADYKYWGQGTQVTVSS"
measured_number = 2020

[[record]]
binder = "anti-PVRIG antibody 30 (antibody, human IgG4 S228P, F234A L235A, V domains shown, no light chain) VH: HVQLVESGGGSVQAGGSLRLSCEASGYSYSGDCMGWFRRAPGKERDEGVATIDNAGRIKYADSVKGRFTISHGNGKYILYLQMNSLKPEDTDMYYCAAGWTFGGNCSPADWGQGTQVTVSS"
measured_number = 1910

[[record]]
binder = "anti-PVRIG antibody 151 (antibody, human IgG4 S228P, F234A L235A, V domains shown, no light chain) VH: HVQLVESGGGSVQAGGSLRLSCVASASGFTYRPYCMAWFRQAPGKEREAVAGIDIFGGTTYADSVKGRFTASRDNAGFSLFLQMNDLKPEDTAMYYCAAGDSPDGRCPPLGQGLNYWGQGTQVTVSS"
measured_number = 2220


Read the next record carefully.
Challenge: Dear colleague, I am looking for the recorded MLR IFNγ (pg/mL), 20 nM antibody of the following binder: positive antibody Tab5 (antibody, human IgG4 S228P, kappa, F234A L235A, V domains shown, Variable regions of CPA.7.021 (WO2016134333A1) on human IgG4 (S228P/F234A/L235A/K447A) and human kappa constant regions) VH: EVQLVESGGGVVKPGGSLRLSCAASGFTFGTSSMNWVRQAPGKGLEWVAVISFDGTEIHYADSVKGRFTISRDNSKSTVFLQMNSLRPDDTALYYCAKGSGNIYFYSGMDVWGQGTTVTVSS VL: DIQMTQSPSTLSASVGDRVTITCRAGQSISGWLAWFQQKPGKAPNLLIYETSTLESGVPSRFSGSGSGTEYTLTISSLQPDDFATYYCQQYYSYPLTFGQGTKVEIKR
Response given: 1420
